Origin of the recorded values: ChEMBL document CHEMBL4184210

# Test system: Escherichia coli
# Method Notes: Antimicrobial activity against Escherichia coli expressing beta-lactamase NDM-5 by CLSI broth microdilution method
# Assay type: functional
Below, each of the compounds is paired with its reported MIC value.

Compound	MIC
N=C(NC1CCNCC1)c1ccc(OC[C@H](O/N=C(\C(=O)N[C@@H]2C(=O)N(S(=O)(=O)O)[C@@H]2Cn2cncn2)c2csc(N)n2)C(=O)O)cc1 (stereo in doubt)	0.5 µg/mL
N=C(N)NCc1cnn(C[C@@H]2[C@H](NC(=O)/C(=N\OC3(C(=O)O)CC3)c3csc(N)n3)C(=O)N2S(=O)(=O)O)n1 (stereo in doubt)	0.25 µg/mL
Nc1nc(/C(=N/OC2(C(=O)O)CC2)C(=O)N[C@@H]2C(=O)N(S(=O)(=O)O)[C@@H]2CN2CCOC2=O)cs1 (stereo in doubt)	0.125 µg/mL
N=C(N)NCc1cn(C[C@@H]2[C@H](NC(=O)/C(=N\OC3(C(=O)O)CC3)c3csc(N)n3)C(=O)N2S(=O)(=O)O)nn1 (stereo in doubt)	0.25 µg/mL
C[C@@H](O)[C@H]1C(=O)N2C(C(=O)O)=C(SCCNC=N)C[C@H]12 [IMIPENEM ANHYDROUS]	16 µg/mL
